The measured values listed here are drawn from paper PMC4434323.

In this section we review reported binding signal (PBM E-score (-0.5 to 0.5)) values for a set of sequences.
- TARGET_OR_TEST_SYSTEM: nhr-7 (F54D1.4) (Caenorhabditis elegans) (UniProt Q20765)
- Sequence: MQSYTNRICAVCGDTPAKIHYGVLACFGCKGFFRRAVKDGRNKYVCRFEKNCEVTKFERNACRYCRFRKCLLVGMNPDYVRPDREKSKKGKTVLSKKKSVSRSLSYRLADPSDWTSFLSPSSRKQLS
The answer should be written as a number, with no unit following it.

Worked cases, answers included:
- RESIDUE_STRING: "AAGATCAA (double strand) [8-mer AAGATCAA]"
  TARGET_OR_TEST_SYSTEM: "nhr-7 (F54D1.4) (Caenorhabditis elegans) (UniProt Q20765)"
  RESULT_VALUE: 0.455
- RESIDUE_STRING: "AAAGATCA (double strand) [8-mer AAAGATCA]"
  TARGET_OR_TEST_SYSTEM: "nhr-7 (F54D1.4) (Caenorhabditis elegans) (UniProt Q20765)"
  RESULT_VALUE: 0.476
- RESIDUE_STRING: "AAAGACCA (double strand) [8-mer AAAGACCA]"
  TARGET_OR_TEST_SYSTEM: "nhr-7 (F54D1.4) (Caenorhabditis elegans) (UniProt Q20765)"
  RESULT_VALUE: 0.472

Kindly review the next sequence as well.
# sequence AAGACCAA (double strand) [8-mer AAGACCAA] ; its binding signal (PBM E-score (-0.5 to 0.5)) = 0.469

----------
- TARGET_OR_TEST_SYSTEM: tbx-33 (Y66A7A.8) (Caenorhabditis elegans)
- Sequence: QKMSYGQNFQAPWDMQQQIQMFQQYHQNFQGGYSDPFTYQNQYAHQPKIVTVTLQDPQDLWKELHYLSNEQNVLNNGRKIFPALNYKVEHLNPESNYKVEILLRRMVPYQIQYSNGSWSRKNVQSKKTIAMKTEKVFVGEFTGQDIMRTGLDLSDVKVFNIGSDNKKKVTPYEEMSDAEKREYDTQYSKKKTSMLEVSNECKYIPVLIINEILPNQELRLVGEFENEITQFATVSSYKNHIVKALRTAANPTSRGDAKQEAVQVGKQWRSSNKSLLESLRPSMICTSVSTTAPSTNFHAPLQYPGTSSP
OBSERVED_PROPERTY: binding signal (PBM E-score (-0.5 to 0.5))

Worked cases, answers included:
- RESIDUE_STRING: "ATCACCAC (double strand) [8-mer ATCACCAC]"
  RESULT_VALUE: 0.459
- RESIDUE_STRING: "ATCTCCAC (double strand) [8-mer ATCTCCAC]"
  RESULT_VALUE: 0.485
- RESIDUE_STRING: "ATCGCCAG (double strand) [8-mer ATCGCCAG]"
  RESULT_VALUE: 0.473
- RESIDUE_STRING: "ATCGTCAC (double strand) [8-mer ATCGTCAC]"
  RESULT_VALUE: 0.487
- RESIDUE_STRING: "ATCTCCAG (double strand) [8-mer ATCTCCAG]"
  RESULT_VALUE: 0.474
- RESIDUE_STRING: "ATTGTCAC (double strand) [8-mer ATTGTCAC]"
  RESULT_VALUE: 0.47

# sequence ATCGCCAC (double strand) [8-mer ATCGCCAC] ; its binding signal (PBM E-score (-0.5 to 0.5)) = 0.49

# sequence ATCTTCAC (double strand) [8-mer ATCTTCAC] ; its binding signal (PBM E-score (-0.5 to 0.5)) = 0.488
